Tested on: rhythmic bladder contractions induced by substance P
Assay text: Inhibitory effect on the rhythmic bladder contractions induced by substance P in anesthetized rats
Assay type: in vivo, rat
Measurement context: time during which frequency of rhythmic contraction was completely inhibited, 0.25 mg/kg of the compound, substance P infusion
Procedure: Inhibitory effect on the rhythmic bladder contractions induced by substance P in anesthetized rats For the experiments, Sprague-Dawley female rats (9 to 12 weeks old) weighing between 200 to 300 g were used. After urethane anesthetization (subcutaneously administered with a dose of 1.2 g/kg), cannulae were placed in both right and left femoral veins. One intravenous catheter was used for administration of compounds, and the other was for the substance P (0.33 μg/kg/min) infusion. […]
Assay metric: 100% inhibition time range

[
  {
    "Compound": "C[S+]([O-])Cc1nc(-c2ccc(F)cc2)[nH]c1-c1ccsc1 (stereo not shown)",
    "Experimental system": "rhythmic bladder contractions induced by substance P",
    "Assay metric": "100% inhibition time range",
    "Test value": "B (A≧20>B≧10>C (minute))"
  },
  {
    "Compound": "O=C(O)Cc1nc(-c2ccc(F)cc2)oc1-c1ccccc1O",
    "Experimental system": "rhythmic bladder contractions induced by substance P",
    "Assay metric": "100% inhibition time range",
    "Test value": "C (A≧20>B≧10>C (minute))"
  },
  {
    "Compound": "Cc1nc(-c2ccc(F)cc2)[nH]c1-c1ccsc1",
    "Experimental system": "rhythmic bladder contractions induced by substance P",
    "Assay metric": "100% inhibition time range",
    "Test value": "B (A≧20>B≧10>C (minute))"
  },
  {
    "Compound": "CSc1ccc(-c2nc(CC(=O)O)c(-c3ccsc3)o2)cc1",
    "Experimental system": "rhythmic bladder contractions induced by substance P",
    "Assay metric": "100% inhibition time range",
    "Test value": "C (A≧20>B≧10>C (minute))"
  },
  {
    "Compound": "N#CCCc1nc(-c2ccc(F)cc2)[nH]c1-c1ccccc1",
    "Experimental system": "rhythmic bladder contractions induced by substance P",
    "Assay metric": "100% inhibition time range",
    "Test value": "C (A≧20>B≧10>C (minute))"
  }
]

The reported 100% inhibition time range value, rhythmic bladder contractions induced by substance P, for `O=C(Cc1nc(-c2ccc(F)cc2)oc1-c1ccsc1)NCc1ccccn1` reads C (A≧20>B≧10>C (minute))

The reported 100% inhibition time range value, rhythmic bladder contractions induced by substance P, for `CCc1[nH]c(-c2cc(Cl)sc2S(N)(=O)=O)nc1-c1cccnc1.Cl.Cl` reads C (A≧20>B≧10>C (minute))

The reported 100% inhibition time range value, rhythmic bladder contractions induced by substance P, for `CCN(C)c1ncc(-c2nc(CC(=O)O)c(-c3ccc(Cl)s3)o2)cn1` reads C (A≧20>B≧10>C (minute))

The reported 100% inhibition time range value, rhythmic bladder contractions induced by substance P, for `NC(=O)Cc1nc(-c2ccc(F)cc2)oc1-c1ccsc1` reads B (A≧20>B≧10>C (minute))

The reported 100% inhibition time range value, rhythmic bladder contractions induced by substance P, for `COc1ccc(-c2nc(CC(=O)O)c(-c3ccc(Cl)s3)o2)cc1Cl` reads C (A≧20>B≧10>C (minute))

The reported 100% inhibition time range value, rhythmic bladder contractions induced by substance P, for `CN(C)c1ccc(-c2nc(-c3ccc(Cl)s3)c(CC(=O)O)o2)cn1` reads C (A≧20>B≧10>C (minute))

The reported 100% inhibition time range value, rhythmic bladder contractions induced by substance P, for `O=C(O)Cc1nc(-c2ccc3ccccc3n2)oc1-c1ccc(Cl)s1` reads B (A≧20>B≧10>C (minute))

The reported 100% inhibition time range value, rhythmic bladder contractions induced by substance P, for `CN(C)c1ncc(-c2nc(-c3ccc(Cl)s3)c(CC(=O)O)o2)cn1` reads B (A≧20>B≧10>C (minute))

The reported 100% inhibition time range value, rhythmic bladder contractions induced by substance P, for `COCc1nc(-c2ccc(F)cc2)[nH]c1-c1ccsc1` reads B (A≧20>B≧10>C (minute))

The reported 100% inhibition time range value, rhythmic bladder contractions induced by substance P, for `CCc1nc(-c2ccc(Cl)cc2)[nH]c1-c1cccnc1` reads B (A≧20>B≧10>C (minute))

The reported 100% inhibition time range value, rhythmic bladder contractions induced by substance P, for `O=C(O)Cc1nc(-c2cnc3occc3c2)oc1-c1ccc(Cl)s1` reads B (A≧20>B≧10>C (minute))

The reported 100% inhibition time range value, rhythmic bladder contractions induced by substance P, for `O=C(O)Cc1nc(-c2cc3ccccc3s2)oc1-c1ccc(Cl)cc1` reads A (A≧20>B≧10>C (minute))

The reported 100% inhibition time range value, rhythmic bladder contractions induced by substance P, for `CCOC(=O)Cc1nc(-c2ccc(F)cc2)oc1I` reads B (A≧20>B≧10>C (minute))

The reported 100% inhibition time range value, rhythmic bladder contractions induced by substance P, for `CCCc1nc(-c2ccc(F)cc2)[nH]c1-c1cccnc1` reads B (A≧20>B≧10>C (minute))

The reported 100% inhibition time range value, rhythmic bladder contractions induced by substance P, for `O=C(O)Cc1nc(-c2ccccc2)oc1-c1ccc(Cl)s1` reads C (A≧20>B≧10>C (minute))

The reported 100% inhibition time range value, rhythmic bladder contractions induced by substance P, for `O=C(O)Cc1nc(-c2ccc(F)cc2)oc1-c1ccsc1` reads C (A≧20>B≧10>C (minute))

The reported 100% inhibition time range value, rhythmic bladder contractions induced by substance P, for `CCCc1nc(-c2csc(Cl)c2)[nH]c1-c1ccccc1` reads A (A≧20>B≧10>C (minute))

The reported 100% inhibition time range value, rhythmic bladder contractions induced by substance P, for `O=C(O)Cc1nc(-c2ccc3ncccc3c2)oc1-c1ccsc1` reads C (A≧20>B≧10>C (minute))
